Reference source for all entries: PubChem BioAssay (NCI)

Please respond with reported TGI for every item in the list.
system: SK-MEL-5 melanoma; test: NCI tumour cell line growth inhibition, 48 h
Quick reminder: number only, in µM, skip the unit.

Name the recorded TGI of the item CN(CCCCN1CCCC1)CCCN(C)C(=O)Cc1ccc(Cl)c(Cl)c1 in your answer.
23.8

Name the recorded TGI of the item Cc1ccc(/C=C2/SC(Nc3nc(-c4csc(NC5=NC(=O)/C(=C\c6ccc(C)cc6)S5)n4)cs3)=NC2=O)cc1 in your answer.
1.4

Name the recorded TGI of the item COC(=O)C1=C(C(=O)ON)C2C=CC1(C(Cc1ccccc1)Nc1ccccc1)O2 (centres undefined) in your answer.
27.2

Name the recorded TGI of the item COC(=O)C1(c2cc3ccccc3n2S(=O)(=O)c2ccccc2)CC2C=CC1NC2 (centres undefined) in your answer.
16.7

###

test system: HCT-116 colon; assay: NCI tumour cell line growth inhibition, 48 h
Please respond with reported TGI for every item in the list.
Quick reminder: number only, in µM, skip the unit.

Name the recorded TGI of the item CC1(c2cccc3ccccc23)OC(=O)c2ccccc21 (stereo not drawn) in your answer.
34.6

Name the recorded TGI of the item CCN1CCN(c2ccc(Nc3ccnc4ccc5c(nnn5C)c34)cc2)CC1 in your answer.
14.3

Name the recorded TGI of the item O=C(Nc1cccc(Cl)c1)c1ccc(NC2=C(Cl)C(=O)N(Cc3ccccc3)C2=O)cc1 in your answer.
17.2

Name the recorded TGI of the item O=C1C(N2CCNCC2)=C(Cl)C(=O)c2ncccc21 in your answer.
4.36

Name the recorded TGI of the item O=c1c2ccccc2n(C[C@H]2CO2)c2ccccc12 in your answer.
8.78

Name the recorded TGI of the item O=C(CC1(O)C(=O)Nc2c(Cl)ccc(Cl)c21)c1ccc2ccccc2c1 (stereo not drawn) in your answer.
28.3

###

test system: EKVX NSCLC; test: NCI tumour cell line growth inhibition, 48 h; in the data active = GI50 below about 0.43 µM; inactive = the rest
Bench note: report the call from YES = active, NO = inactive

// return assay outcome for O=C1c2cc3c(cc2-c2c1c1ccc(Cl)cc1c(=O)n2CCCNCCO)OCO3
NO

// return assay outcome for COC(=O)c1c2c(c(C)[n+]([O-])c1C)C(=O)C=C(NCc1ccc(F)c(Cl)c1)C2=O
NO

// return assay outcome for CC[C@H](Nc1nc(NCc2cnc(C)cc2C)c2ncn(C(C)C)c2n1)[C@@H](C)O
YES

// return assay outcome for CC(C)(O)CS(=O)(=O)Nc1ccc2c(c1)CCN(C(=O)COc1cccnc1)C2
NO

// return assay outcome for CC(=O)[CH-]C(=O)c1ccccc1.CC(=O)[CH-]C(=O)c1ccccc1.CC1(C)C2CCC1(C)C([O-])C2.CC1(C)C2CCC1(C)C([O-])C2.[Ti+4]
NO

// return assay outcome for CN(C)c1ccc([O][Bi]([Cl])[Cl])cc1
NO

// return assay outcome for O=C(Nc1cccc(Cl)c1)c1ccc(NC2=C(Cl)C(=O)N(Cc3ccccc3)C2=O)cc1
NO

// return assay outcome for N[C@@H]1CCCC[C@H]1N.O=C([O-])C(=O)[O-].[Pt+4]
NO

// return assay outcome for CC(=O)[CH-]C(=O)c1ccccc1.CC(=O)[CH-]C(=O)c1ccccc1.[Eu+3].[OH-].[OH3+]
NO

// return assay outcome for CCOC(=O)c1[nH]c(Br)c(-c2ccc(Br)cc2)c1Br
NO

// return assay outcome for Ic1ccccc1-c1ccccc1
NO

// return assay outcome for C=C1C(=O)O[C@H]2[C@H]1CC/C(Cn1cc(-c3cc(C(F)(F)F)cc(C(F)(F)F)c3)nn1)=C\CC[C@@]1(C)O[C@@H]21
NO
